Reference for the values: ChEMBL document CHEMBL1140402

# target-desc: Dihydroorotate dehydrogenase (quinone), mitochondrial (Homo sapiens)
# Sequence (Q02127 whole entry, the tested form may be a part): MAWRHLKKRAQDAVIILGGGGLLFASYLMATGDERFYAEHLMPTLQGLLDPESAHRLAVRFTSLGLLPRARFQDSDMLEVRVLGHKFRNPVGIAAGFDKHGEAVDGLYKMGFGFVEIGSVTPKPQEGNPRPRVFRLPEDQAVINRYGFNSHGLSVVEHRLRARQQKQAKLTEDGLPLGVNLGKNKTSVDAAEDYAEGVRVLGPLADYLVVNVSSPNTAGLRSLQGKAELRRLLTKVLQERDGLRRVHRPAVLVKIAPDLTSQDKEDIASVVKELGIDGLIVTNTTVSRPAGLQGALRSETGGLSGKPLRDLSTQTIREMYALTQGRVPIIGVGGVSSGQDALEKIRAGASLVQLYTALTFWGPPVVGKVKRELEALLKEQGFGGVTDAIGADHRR
# assay: Inhibition of N-terminally truncated recombinant human dihydroorotate dehydrogenase using in vitro enzyme assay
Consider the cut-off 60 nM. If the recorded IC50 is strictly smaller, the label is criterion met; if not, the label is criterion not met.

Worked cases, answers included:
# molecule, category
measured = [
    ("COc1cccc(-c2ccc(NC(=O)C3=C(C(=O)O)CCC3O)c(F)c2)c1 (stereo not given)", "criterion not met"),
    ("O=C(O)C1=C(C(=O)Nc2c(F)c(F)c(-c3cccc(OC(F)(F)F)c3)c(F)c2F)COC1", "criterion met"),
]

Problem: For the molecule O=C(O)C1=C(C(=O)Nc2ccc(-c3ccccc3)cc2)CSC1 , is IC50 under 60 nM?
criterion not met

Bench note: check whether O=C(O)C1=C(C(=O)Nc2ccc(OCc3c(F)cccc3Cl)c(Cl)c2)CCC1 shows IC50 below 60 nM
criterion met

Dear colleague, could you confirm whether IC50 of O=C(O)C1=C(C(=O)Nc2cc(Br)c(OCc3ccccc3)c(Br)c2)CSC1 falls below 60 nM? Thanks.
criterion not met
